experiment: self-splicing fitness, log relative to wild type (ln ratio); higher = more splicing; Tetrahymena group I intron in knt gene, E. coli kanamycin selection, DiMSum; sequences stand for … in CUCUCU…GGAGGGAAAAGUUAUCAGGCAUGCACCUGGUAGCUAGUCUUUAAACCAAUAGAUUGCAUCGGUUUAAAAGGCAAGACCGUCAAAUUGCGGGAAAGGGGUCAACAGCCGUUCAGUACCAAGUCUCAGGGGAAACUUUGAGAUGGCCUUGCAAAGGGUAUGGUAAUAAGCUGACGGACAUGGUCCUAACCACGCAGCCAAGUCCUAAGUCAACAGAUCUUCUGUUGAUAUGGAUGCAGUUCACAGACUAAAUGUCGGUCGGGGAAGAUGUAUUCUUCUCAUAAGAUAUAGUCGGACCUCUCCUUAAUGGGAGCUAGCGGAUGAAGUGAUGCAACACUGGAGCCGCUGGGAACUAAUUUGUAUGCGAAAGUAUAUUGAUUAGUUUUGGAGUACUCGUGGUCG; details: 30 °C;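 note: selection with 25 µg/mL kanamycin versus none on LB agar overnight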
# cutoff -2 applies to self-splicing fitness (ln); >= gives Y, < gives N

{"columns": ["seqString", "discreteLabel"],
 "data": [
  ["UGAGAGCAAUAUUACGAUCG", "N"],
  ["CCUUAGCAAUAUUACGUCGG", "N"],
  ["UGCCAGCAAUAUUACGACAA", "Y"],
  ["GCGAAGCAAUAUUACGGAUU", "Y"],
  ["UACUAGCAAUAUUACGUAGG", "N"],
  ["UAGAAGCAAUAUUACGCGUA", "Y"],
  ["UUACAGCAAUAUUACGGGAG", "Y"],
  ["GAUAAGCAAUAUUACGGCAU", "Y"],
  ["GGUCAGCAAUAUUACGCACG", "Y"],
  ["GAGCAGCAAUAUUACGGGCC", "N"],
  ["UAUAAGCAAUAUUACGGCAG", "Y"],
  ["CGGAAGCAAUAUUACGUUUG", "Y"],
  ["CUAAAGCAAUAUUACGUAUU", "N"],
  ["CCAAAGCAAUAUUACGACAU", "N"],
  ["CCAGAGCAAUAUUACGCGCU", "N"],
  ["AGCUAGCAAUAUUACGUCGC", "N"],
  ["AUCUAGCAAUAUUACGAGCC", "N"],
  ["UGAGAGCAAUAUUACGCUAU", "N"]
]}
